The origin of these recorded values is patent US20240116985A1.

Known pIC50 of a selection of compounds
target.of.assay: full-length beta-Catenin (Uniprot ID P35222) (Homo sapiens, UniProt P35222)
Construct: 10 nM full-length beta-Catenin (Uniprot ID P35222)
Sequence (P35222 whole entry): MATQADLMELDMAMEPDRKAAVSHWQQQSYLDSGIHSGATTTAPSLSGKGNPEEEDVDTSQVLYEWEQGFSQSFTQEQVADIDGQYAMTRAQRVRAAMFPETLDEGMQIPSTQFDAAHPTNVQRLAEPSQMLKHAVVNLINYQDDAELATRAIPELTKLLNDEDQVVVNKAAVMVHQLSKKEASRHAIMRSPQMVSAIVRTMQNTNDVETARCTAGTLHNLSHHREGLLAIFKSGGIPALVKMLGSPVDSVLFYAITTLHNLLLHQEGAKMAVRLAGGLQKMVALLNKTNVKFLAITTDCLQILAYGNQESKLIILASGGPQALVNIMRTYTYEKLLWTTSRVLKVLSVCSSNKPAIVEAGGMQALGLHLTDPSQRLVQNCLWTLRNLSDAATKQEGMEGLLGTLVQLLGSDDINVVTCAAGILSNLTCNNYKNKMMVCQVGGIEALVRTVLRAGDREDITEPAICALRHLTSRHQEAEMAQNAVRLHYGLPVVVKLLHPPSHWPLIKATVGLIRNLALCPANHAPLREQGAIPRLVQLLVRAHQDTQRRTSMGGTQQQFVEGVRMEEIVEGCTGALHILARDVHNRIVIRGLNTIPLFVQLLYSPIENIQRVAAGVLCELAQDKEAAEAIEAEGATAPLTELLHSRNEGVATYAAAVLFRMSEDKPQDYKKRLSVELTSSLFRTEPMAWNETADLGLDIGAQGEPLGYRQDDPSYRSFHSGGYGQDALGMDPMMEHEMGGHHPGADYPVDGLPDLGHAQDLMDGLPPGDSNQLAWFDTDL
procedure.text: Fluorescence polarization IC50 (beta-catenin / 5FAM-TCF4 10-53 competition)
Type: binding
particulars: read-out: beta-Catenin FP IC50
Hey, just a heads up that pIC50 is the negative log base 10 of the concentration in molar.

## Input Return value of pIC50 for input CC(=O)N1CCC[C@]12CC=CCCCC1(CCCC=CCCCOC(=O)N3CC[C@@](C(=O)N[C@@H](Cc4ccccc4Cl)C(=O)N[C@@H](Cc4csc5ccccc45)C(=O)N[C@H](C(N)=O)[C@@H](C)O)(C3)NC(=O)[C@H](CC(C)C)NC(=O)[C@H](Cc3ccccc3)NC(=O)[C@H](C)NC(=O)[C@H](C)NC(=O)[C@H](CC(=O)O)NC(=O)[C@H](CC(=O)O)NC1=O)NC(=O)[C@H](CC(C)(C)C)NC(=O)[C@H](CC(=O)O)NC2=O (stereo partly drawn) [I-1068] , no commentary.
## Output 6.02

## Input Return value of pIC50 for input CC(=O)N1CCC[C@]12CC=CCCCC1(CCCC=CCCCCOC(=O)N3CC[C@@](C(=O)N[C@@H](Cc4ccsc4)C(=O)N[C@@H](Cc4csc5ccccc45)C(=O)N[C@@H](Cc4c[nH]cn4)C(=O)N[C@H](C)C(N)=O)(C3)NC(=O)[C@H](CC(N)=O)NC(=O)[C@H](Cc3ccccc3)NC(=O)[C@H](C)NC(=O)[C@H](C)NC(=O)[C@H](CC(=O)O)NC(=O)[C@H](CC(=O)O)NC1=O)NC(=O)[C@H](CC(C)(C)C)NC(=O)[C@H](CC(=O)O)NC2=O (stereo partly drawn) [I-832] , no commentary.
## Output 8.05

## Input Return value of pIC50 for input CC(=O)N1CCC[C@]12CC=CCCCC1(CCCC=CCCCOC(=O)N3CC[C@@](C(=O)N[C@@H](Cc4ccsc4)C(=O)N[C@@H](Cc4csc5ccccc45)C(=O)N[C@@H](Cc4c[nH]cn4)C(=O)N[C@H](C)C(N)=O)(C3)NC(=O)[C@H](CC(N)=O)NC(=O)[C@H](Cc3ccccc3)NC(=O)[C@H](C)NC(=O)[C@H](C)NC(=O)[C@H](CC(=O)O)NC(=O)[C@H](CC(=O)O)NC1=O)NC(=O)[C@H](CC(C)(C)C)NC(=O)[C@H](CC(=O)O)NC2=O (stereo partly drawn) , no commentary.
## Output 8.30

----------
Test system: COLO320DM cells
Assay type: cell-based
particulars: COLO320DM cells, absolute IC50; read-out: COLO320DM Proliferation Abs IC50
Known IC50 of a selection of compounds

// worked examples, IC50 included
>  <compound>
CC(=O)N1CCC[C@]12CC=CCCCC1(CCCC=CCCCOC(=O)N3CC[C@@](C(=O)N[C@@H](Cc4ccccc4C(F)(F)F)C(=O)N[C@@H](Cc4csc5ccccc45)C(=O)N[C@@H](CCC(=O)N(C)C)C(N)=O)(C3)NC(=O)[C@H](CC(C)C)NC(=O)[C@H](Cc3ccccc3)NC(=O)[C@H](C)NC(=O)[C@H](CCC(=O)N(C)C)NC(=O)[C@H](Cc3cccc(C(=O)O)c3)NC(=O)[C@H](CC(=O)O)NC1=O)NC(=O)[C@H](CC(C)(C)C)NC(=O)[C@H](CC(=O)O)NC2=O (stereo partly drawn) [I-2300]

>  <value.reported>
> 20 µM

$$$$
>  <compound>
CC(=O)N1CCN(C(=O)CC[C@@H]2NC(=O)[C@H](Cc3cccc(C(=O)O)c3)NC(=O)[C@H](CC(=O)O)NC(=O)C3(CCCC=CCCCOC(=O)N4CC[C@@](C(=O)N[C@@H](Cc5ccccc5C(F)(F)F)C(=O)N[C@@H](Cc5csc6ccccc56)C(=O)N[C@@H](C)C(N)=O)(C4)NC(=O)[C@H](CC(C)C)NC(=O)[C@H](Cc4ccccc4)NC(=O)[C@H](C)NC2=O)CCCC=CC[C@]2(CCCN2C(C)=O)C(=O)N[C@@H](CC(=O)O)C(=O)N[C@@H](CC(C)(C)C)C(=O)N3)CC1 (stereo partly drawn) [I-2319]

>  <value.reported>
> 20 µM

$$$$

Now for another entry.
## Input Return value of IC50 for input CC[C@@H]1NC(=O)[C@H](Cc2ccccc2)NC(=O)[C@H](C)NC(=O)C(C)(C)NC(=O)[C@H](Cc2cccc(C(=O)O)c2)NC(=O)[C@H](CC(=O)O)NC(=O)C2(CCCC=CCCCOC(=O)N3CC[C@@](C(=O)N[C@@H](Cc4ccccc4C(F)(F)F)C(=O)N[C@@H](Cc4csc5ccccc45)C(=O)N[C@@H](CCC(=O)N(C)C)C(=O)N[C@@H](C)C(N)=O)(C3)NC1=O)CCCC=CC[C@]1(CCCN1C(C)=O)C(=O)N[C@@H](CC(=O)O)C(=O)N[C@@H](CC(C)(C)C)C(=O)N2 (stereo partly drawn) [I-2468] , no commentary.
## Output > 20 µM
